# target or system: C-C chemokine receptor type 4 (Homo sapiens, UniProt P51679)
# Sequence (P51679 whole entry): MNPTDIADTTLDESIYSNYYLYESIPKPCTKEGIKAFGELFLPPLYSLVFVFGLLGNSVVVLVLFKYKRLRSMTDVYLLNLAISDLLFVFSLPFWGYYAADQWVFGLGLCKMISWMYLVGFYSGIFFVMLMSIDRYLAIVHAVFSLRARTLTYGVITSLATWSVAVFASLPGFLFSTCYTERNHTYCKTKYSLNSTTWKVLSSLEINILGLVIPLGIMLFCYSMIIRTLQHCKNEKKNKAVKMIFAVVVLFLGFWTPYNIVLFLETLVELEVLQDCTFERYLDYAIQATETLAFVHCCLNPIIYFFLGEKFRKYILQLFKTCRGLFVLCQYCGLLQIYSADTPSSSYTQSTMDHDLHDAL
# procedure summary: Inhibition of [125I]MDC binding to recombinant human C-C chemokine receptor type 4 (CCR4) expressed in murine pre-B cells
# Assay type: cell-based
measured quantity: pIC50
Give bare numbers, as −log10 of the molar value.

For every listed record, write down its pIC50.
1. Cc1ccc([C@H]2S[C@H](CC(=O)NCc3cccc4ccccc34)C(=O)N2CC(=O)NCCCN2CCOCC2)c(C)c1
2. C[C@@H](NC(=O)C[C@H]1S[C@H](c2ccc(Cl)cc2Cl)N(CC(=O)NCCCN2CCOCC2)C1=O)c1ccccc1 (stereo in doubt)
3. O=C(C[C@H]1S[C@H](c2ccc(Cl)cc2Cl)N(CC(=O)NCCCN2CCCCC2)C1=O)NCc1cccc2ccccc12
4. O=C(C[C@H]1S[C@H](c2cccs2)N(CC(=O)NCCCN2CCOCC2)C1=O)NCc1cccc2ccccc12
5. O=C(C[C@H]1S[C@H](c2cc(Cl)ccc2Cl)N(CC(=O)NCCCN2CCOCC2)C1=O)NCc1cccc2ccccc12
6. O=C(C[C@H]1S[C@H](c2cccc(Cl)c2)N(CC(=O)NCCCN2CCOCC2)C1=O)NCc1cccc2ccccc12

Output:
[4.96, 5.10, 6.70, 4.48, 4.92, 5.15]

For every listed record, write down its pIC50.
1. O=C(C[C@H]1S[C@H](c2ccc(Cl)cc2Cl)N(CC(=O)NCCCCN2CCOCC2)C1=O)NCc1cccc2ccccc12
2. O=C(C[C@H]1S[C@H](c2ccc(Cl)cc2Cl)N(CC(=O)NCCCN2CCOCC2)C1=O)NCc1cccs1
3. C[C@@H](NC(=O)C[C@H]1S[C@H](c2ccc(Cl)cc2Cl)N(CC(=O)NCCCN2CCOCC2)C1=O)c1cccc2ccccc12
4. Cc1ccc(CNC(=O)C[C@H]2S[C@H](c3ccc(Cl)cc3Cl)N(CC(=O)NCCCN3CCOCC3)C2=O)n1C
5. O=C(C[C@H]1S[C@H](c2ccsc2)N(CC(=O)NCCCN2CCOCC2)C1=O)NCc1cccc2ccccc12
6. O=C(C[C@H]1S[C@H](c2ccc(Cl)cc2Cl)N(CCCN2CCOCC2)C1=O)NCc1cccc2ccccc12

Output:
6.42
4.96
6.60
5.60
4.18
4.48

---

Assignment: determine reported pIC50 for the given molecules.
# target or system: C-C chemokine receptor type 4 (Homo sapiens)
# procedure summary: Inhibition of [125I]MDC binding to recombinant human C-C chemokine receptor type 4 (CCR4) expressed in murine pre-B cells
# Type: cell-based
Numbers only, as −log10 of the molar value.

For every listed record, write down its pIC50.
1. COc1ccc(CNC(=O)C[C@H]2S[C@H](c3ccc(Cl)cc3Cl)N(CC(=O)NCCCN3CCOCC3)C2=O)c(OC)c1OC
2. CN(C)CCCN(C)C(=O)CN1C(=O)[C@@H](CC(=O)NCc2cccc3ccccc23)S[C@@H]1c1ccc(Cl)cc1Cl
3. O=C(C[C@H]1S[C@H](c2ccc(Cl)cc2Cl)N(CC(=O)N2CCC(N3CCCC3)CC2)C1=O)NCc1cccc2ccccc12

Output:
1. 4.96
2. 6.44
3. 6.22

---

# target or system: C-C chemokine receptor type 4 (Homo sapiens, UniProt P51679)
# procedure summary: Inhibition of [125I]MDC binding to recombinant human C-C chemokine receptor type 4 (CCR4) expressed in murine pre-B cells
# Format: cell-based
measured quantity: pIC50
Numbers only, as −log10 of the molar value.

1) O=C(C[C@H]1S[C@H](c2ccc(Cl)cc2Cl)N(CC(=O)NCCCN2CCOCC2)C1=O)NCc1cccc(-c2ccccc2)c1
5.89
2) CN(C)CCN1C(=O)[C@@H](CC(=O)NCc2cccc3ccccc23)S[C@@H]1c1ccc(Cl)cc1Cl
4.44
3) C[C@@H](NC(=O)C[C@H]1S[C@H](c2ccc(Cl)cc2Cl)N(CC(=O)NCCCN2CCOCC2)C1=O)c1ccccc1 (stereo in doubt; 89)
6.60

For every listed record, write down its pIC50.
1. O=C(C[C@H]1S[C@H](c2cccc(C(F)(F)F)c2)N(CC(=O)NCCCN2CCOCC2)C1=O)NCc1cccc2ccccc12
2. O=C(C[C@H]1S[C@H](c2ccc(F)cc2F)N(CC(=O)NCCCN2CCOCC2)C1=O)NCc1cccc2ccccc12
3. O=C(C[C@H]1S[C@H](c2ccc(Cl)cc2Cl)N(CCNS(=O)(=O)CCCN2CCOCC2)C1=O)NCc1cccc2ccccc12
4. O=C(C[C@H]1S[C@H](c2ccc(Cl)cc2Cl)N(CC(=O)NCCCN2CCOCC2)C1=O)NCc1cccc(C(F)(F)F)c1

Output:
1: 4.92; 2: 6.00; 3: 4.62; 4: 6.00

Ref: ChEMBL document CHEMBL1148225
